- assayedTarget: P3Z chimeric PD-1 receptor (human)
- Sequence (chain, as listed by the source mutant limits assumed): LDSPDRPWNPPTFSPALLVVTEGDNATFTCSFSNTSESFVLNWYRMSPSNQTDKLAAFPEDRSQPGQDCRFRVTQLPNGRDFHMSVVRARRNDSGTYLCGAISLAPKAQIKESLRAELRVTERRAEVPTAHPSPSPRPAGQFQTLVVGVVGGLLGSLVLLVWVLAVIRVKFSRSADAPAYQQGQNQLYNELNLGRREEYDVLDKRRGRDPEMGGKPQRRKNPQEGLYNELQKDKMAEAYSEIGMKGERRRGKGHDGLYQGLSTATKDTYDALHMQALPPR
- measurementNotes: cell-based or functional assay
measuredMetric: IL-2 release in HuT78/P3Z, Max inhibition (%)
Express it in %; write the number only.

hu326-2 F95Y (antibody, V domains shown, mAb; constant regions not restated (hu326-1 is IgG2 / kappa); Forward mutation to human) VH: QVQLVQSGSELKKPGASVKVSCKASGYTFTNYGMNWVRQAPGQGLEWMGWINNNNGEPTYAQGFRGRFVFSLDTSASTAYLQISSLKTEDTAVYYCARDVMDYWGQGTTVTVSS VL: DIVLTQSPASLAVSPGQRATITCRASESVDNYGYSFMHWYQQKPGQPPKLLIYRASNLESGVPARFSGSGSRTDFTLTINPVEANDTANYYCQQSKEYPTFGGGTKVEIK	95.6
hu326-1 (antibody, IgG2, V domains shown, not shown: a dimerising Fc or GST, domain: Ig kappa C-region; Initial humanized version, IgG2 / kappa) VH: QVQLVQSGSELKKPGASVKVSCKASGYTFTNYGMNWVRQAPGQGLEWMGWINNNNGEPTYAQGFRGRFVFSLDTSASTAYLQISSLKTEDTAVYFCARDVMDYWGQGTTVTVSS VL: DIVLTQSPASLAVSPGQRATITCRASESVDNYGYSFMHWYQQKPGQPPKLLIYRASNLESGVPARFSGSGSRTDFTLTINPVEANDTANYYCQQSKEYPTFGGGTKVEIKR	92.4

IL-2 release in HuT78/P3Z, Max inhibition reading for ch326 (antibody, human IgG2, V domains shown, not shown: a dimerising Fc or GST, domain: Ig kappa C-region; Murine VH and Vκ of mu326 on human IgG2 / kappa) VH: QIQLVQSGPELKKPGETVKISCKASGYTFTNYGMNWVKQAPGKGLKWMGWINNNNGEPTYAEEFKGRFAFSLETSASTAYLQINNLKNEDTATYFCARDVMDYWGQGTSVTVSS VL: DIVLTQSPASLAVSLGQRATISCRASESVDNYGYSFMHWYQQKPGQPPQLLIYRASNLESGIPARFSGSGSRTGFTLTINPVEADDVATYYCQQSKEYPTFGGGTKLEVKR : 93
